# Measured Target: cyclin D1/cdk 4 enzyme (Homo sapiens)
# Construct: made in house; host or cells: Sf9 insect cells, recombinant baculovirus
# Sequence (P11802 whole entry, species assumed): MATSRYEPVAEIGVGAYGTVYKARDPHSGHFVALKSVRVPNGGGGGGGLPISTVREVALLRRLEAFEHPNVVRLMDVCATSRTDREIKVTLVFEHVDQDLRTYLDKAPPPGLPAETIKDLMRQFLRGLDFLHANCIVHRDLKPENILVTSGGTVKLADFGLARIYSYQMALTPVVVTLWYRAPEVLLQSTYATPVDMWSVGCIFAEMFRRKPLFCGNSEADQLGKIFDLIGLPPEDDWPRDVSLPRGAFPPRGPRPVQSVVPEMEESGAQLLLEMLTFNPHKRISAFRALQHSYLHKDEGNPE
# Sequence (P24385 whole entry partner, species assumed): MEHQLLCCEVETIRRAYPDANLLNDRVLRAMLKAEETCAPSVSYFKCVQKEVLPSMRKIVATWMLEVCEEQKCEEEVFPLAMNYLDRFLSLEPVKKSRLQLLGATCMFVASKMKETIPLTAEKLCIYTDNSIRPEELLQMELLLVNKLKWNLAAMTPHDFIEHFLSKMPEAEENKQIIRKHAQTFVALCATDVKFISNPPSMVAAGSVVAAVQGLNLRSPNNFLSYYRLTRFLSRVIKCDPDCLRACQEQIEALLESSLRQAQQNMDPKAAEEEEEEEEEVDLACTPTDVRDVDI
# Assay: CDK4 ELISA kinase assay (phospho-Rb ser 795 detection)
# Type: biochemical
# Run Conditions: In Vitro Enzyme Assays, 200 μM ATP, read-out: CDK4 IC50
Readout Type: IC50 (nM)
Respond numerically; units are nM and should not be typed.

stdin: Return IC50 for the following molecule: CN(C)CCN1CCN(/C=C2\C(=O)NC(=O)c3ccc(Br)cc32)CC1 [Example 106]
stdout: 31500

stdin: Fill in reported IC50 for this entry: CC(=O)N1CCC(c2ccc(N/C=C3\C(=O)NC(=O)c4ccc(-c5ccoc5)cc43)cc2)CC1 [Example 351]
stdout: 130

Turning now to a further record.
stdin: Output measured IC50 for this item: COC1CCN(Cc2ccc(N/C=C3\C(=O)NC(=O)c4ccc(Br)cc43)cc2)CC1 [Example 397]
stdout: 190

---

# Measured Target: cyclin B/CDK1 enzyme (Homo sapiens)
# Construct: purchased New England BioLabs; host or cells: Sf9 insect cells, recombinant baculovirus
# Sequence (P06493 whole entry): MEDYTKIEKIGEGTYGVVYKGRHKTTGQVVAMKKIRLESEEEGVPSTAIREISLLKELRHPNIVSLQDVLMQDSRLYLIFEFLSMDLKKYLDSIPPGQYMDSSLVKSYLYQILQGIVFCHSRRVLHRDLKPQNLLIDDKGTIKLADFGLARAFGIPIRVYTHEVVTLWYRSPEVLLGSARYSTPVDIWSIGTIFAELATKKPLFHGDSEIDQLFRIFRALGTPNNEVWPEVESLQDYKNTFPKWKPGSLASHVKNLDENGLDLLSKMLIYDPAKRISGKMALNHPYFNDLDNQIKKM
# Sequence (P14635 whole entry partner): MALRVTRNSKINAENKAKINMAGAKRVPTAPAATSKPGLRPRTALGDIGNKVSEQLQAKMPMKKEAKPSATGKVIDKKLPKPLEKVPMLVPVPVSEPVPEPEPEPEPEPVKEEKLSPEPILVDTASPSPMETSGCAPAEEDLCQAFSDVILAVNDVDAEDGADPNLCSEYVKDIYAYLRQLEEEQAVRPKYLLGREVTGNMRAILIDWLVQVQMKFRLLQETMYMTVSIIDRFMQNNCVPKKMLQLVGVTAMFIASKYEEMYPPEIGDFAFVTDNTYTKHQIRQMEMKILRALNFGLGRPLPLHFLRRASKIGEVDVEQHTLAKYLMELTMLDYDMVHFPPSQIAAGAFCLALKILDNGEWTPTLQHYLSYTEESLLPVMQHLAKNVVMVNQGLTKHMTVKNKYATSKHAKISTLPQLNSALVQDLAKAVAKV
# Assay: CDK1 ELISA kinase assay (phospho-Rb ser 795 detection)
# Assay type: biochemical
# Run Conditions: In Vitro Enzyme Assay, cyclin B/CDK1, read-out: CDK1 IC50
Overview of reported IC50 across a group of compounds:
The reply should be a number in µM, with the unit left off.

stdin: Print cyclin B/CDK1 enzyme (Homo sapiens) IC50 for N#Cc1ccc(-c2ccc3c(c2)C(=CNCc2ccc(O)c(O)c2)C(=O)NC3=O)cc1 [Example 784] .
stdout: 27.7

stdin: Recall the reported IC50 of O=C1NC(=O)c2ccc(-c3ccc(Cl)cc3)cc2C1=CNCc1ccc(O)c(O)c1 [Example 778] when tested on cyclin B/CDK1 enzyme (Homo sapiens).
stdout: 27.7

stdin: State measured IC50 of the compound O=C1NC(=O)c2ccc(I)cc2/C1=C/NCc1ccc(-c2ccc(F)cc2)c(O)c1 [Example 500] with cyclin B/CDK1 enzyme (Homo sapiens).
stdout: 43.4

stdin: Provide cyclin B/CDK1 enzyme (Homo sapiens) IC50 reading for O=C1NC(=O)c2ccc(-c3ccccc3F)cc2C1=CNCc1ccc(O)c(O)c1 [Example 769] .
stdout: 14.7

stdin: Give IC50; test system cyclin B/CDK1 enzyme (Homo sapiens); compound CC(=O)c1ccc(-c2ccc3c(c2)C(=CNc2ccc(N4CCN(C)CC4)cc2)C(=O)NC3=O)cc1 [Example 688]
stdout: 21.1

More entries:
stdin: Find the measured IC50 of O=C1NC(=O)c2ccc(-c3ccco3)cc2C1=CNCc1ccc(O)c(O)c1 [Example 621] with cyclin B/CDK1 enzyme (Homo sapiens) as test system.
stdout: 8.1

stdin: Report IC50 on cyclin B/CDK1 enzyme (Homo sapiens) for this entry: COc1ccc(CNC=C2C(=O)NC(=O)c3ccc(-c4ccc5[nH]ccc5c4)cc32)cc1O [Example 835]
stdout: 35.5

stdin: State IC50 on cyclin B/CDK1 enzyme (Homo sapiens). Entry: O=C1NC(=O)c2ccc(C=CCn3ccnc3)cc2C1=CNCc1ccc(O)c(O)c1 [Example 665]
stdout: 42.5

---

# Measured Target: cyclin E/CDK2 enzyme (Homo sapiens, UniProt P24941)
# Construct: made in house; host or cells: Sf9 insect cells, recombinant baculovirus
# Assay: CDK2 ELISA kinase assay (phospho-Rb ser 795 detection)
# Assay type: biochemical
# Run Conditions: In Vitro Enzyme Assay, cyclin E/CDK2, read-out: CDK2 IC50
pIC50: −log10 of the molar value.
Decide by pIC50: equal to or exceeding 5 means 1.0, less means 0.0.

Examples from the recorded data:
stdin: State whether the measured pIC50 reaches 5, counting equality as reaching it, for O=C1NC(=O)c2ccc(-c3cccc(C(F)(F)F)c3)cc2C1=CNCc1ccc(O)c(O)c1
stdout: 0.0

stdin: State whether the measured pIC50 reaches 5, counting equality as reaching it, for NS(=O)(=O)c1ccc(CNC=C2C(=O)NC(=O)c3ccc(C=Cc4ccncc4)cc32)cc1
stdout: 0.0

stdin: Entry O=C1NC(=O)c2ccc(-c3ccoc3)cc2/C1=C/Nc1ccc(CN2CCC(CCO)CC2)cc1 : is its pIC50 no less than 5?
stdout: 0.0

Further cases:
stdin: Evaluate O=C1NC(=O)c2ccc(-c3ccoc3)cc2/C1=C/Nc1ccc(CN2CCC[C@H]2CO)cc1 : pIC50 at minimum 5?
stdout: 0.0

stdin: Could you please find out whether O=C1NC(=O)c2ccc(C3CCCC3)cc2/C1=C/NCc1ccc(-c2ccoc2)c(O)c1 has pIC50 that meets 5 or exceeds it?
stdout: 1.0

stdin: Item O=C1NC(=O)c2ccc(I)cc2/C1=C/NCc1ccc(-n2cccc2)c(O)c1 with pIC50 of 5 or above?
stdout: 0.0

stdin: Hi team, for CN1CCN(c2ccc(NC=C3C(=O)NC(=O)c4ccc(C=Cn5ccnc5)cc43)cc2)CC1 , is the recorded pIC50 at or above 5?
stdout: 0.0

stdin: Quick check: does O=C1NC(=O)c2ccc(-c3ccccc3Cl)cc2C1=CNCc1ccc(O)c(O)c1 have pIC50 greater than or equal to 5?
stdout: 1.0
